Values from patent US20170166561A1

Reported half-life at 5 μM values for a set of compounds
Assay: Human plasma stability (Protocols 1 and 2)
Format: in vitro ADME
Settings: human; Protocol 2; plasma pH 7.4 to 8.0, 5 μM, 37° C.; read-out: T1/2
Where a name gives a salt, the structure may show the parent alone.
Could you kindly put the unit after your number?

[
  {
    "compound": "Cc1cc(Cl)c2c(C(=O)OCC34CCN(CC3)CC4)c[nH]c2c1.Cl",
    "half-life at 5 μM": "5.56 h"
  },
  {
    "compound": "Cc1cc2[nH]cc(C(=O)OCC34CCN(CC3)CC4)c2cc1F [Compound 72, hydrochloride]",
    "half-life at 5 μM": "3.8 h"
  },
  {
    "compound": "COc1cc2c(C(=O)OCC34CCN(CC3)CC4)c[nH]c2cc1F",
    "half-life at 5 μM": "5.47 h"
  },
  {
    "compound": "Cl.O=C(OCC12CCN(CC1)CC2)c1c[nH]c2cc(C(F)(F)F)ccc12",
    "half-life at 5 μM": "3.05 h"
  },
  {
    "compound": "Cl.O=C(OCC12CCN(CC1)CC2)c1c[nH]c2cc(F)c(F)cc12",
    "half-life at 5 μM": "5.89 h"
  },
  {
    "compound": "COc1cc2[nH]cc(C(=O)OCC34CCN(CC3)CC4)c2cc1OC",
    "half-life at 5 μM": "2.41 h"
  }
]

# input compound: `COc1cc(Cl)cc2[nH]cc(C(=O)OCC34CCN(CC3)CC4)c12.Cl` ; wanted: its half-life at 5 μM
2.94 h

What does the record list as half-life at 5 μM for `O=C(OCC12CCN(CC1)CC2)c1c[nH]c2cc(O)cc(Br)c12` ?
31.1 h

Reported half-life at 5 μM for `Cc1cc2[nH]cc(C(=O)OCC34CCN(CC3)CC4)c2cc1Cl.Cl` : what is it?
5.26 h

----------
Assay: Human plasma stability (Protocols 1 and 2)
Format: in vitro ADME
Conditions: human, plasma, pH 7.4
# t = half-life at 5 μM below 7 h (exclusive); f = half-life at 5 μM at/above 7 h

[
  {
    "smiles notation": "Cc1cc(OC(=O)C(C)(C)C)cc2[nH]cc(C(=O)OCC34CCN(CC3)CC4)c12",
    "answer label": "t"
  },
  {
    "smiles notation": "COc1cc(C)cc2[nH]cc(C(=O)OCC34CCN(CC3)CC4)c12",
    "answer label": "t"
  }
]

State whether 7 h exceeds half-life at 5 μM recorded for `COc1ccc2[nH]cc(C(=O)OCC34CCN(CC3)CC4)c2c1Cl` .
t

Given the entry `O=C(OCC12CCN(CC1)CC2)c1c[nH]c2cc(Cl)cc(Br)c12` , would its reported half-life at 5 μM be below 7 h?
t

half-life at 5 μM strictly < 7 h for this compound? `Cc1cc(Br)c2c(C(=O)OCC34CCN(CC3)CC4)c[nH]c2c1`
f

Problem: For the compound `O=C(OCC12CCN(CC1)CC2)c1c[nH]c2ccc3c(c12)OCCO3` , is half-life at 5 μM under 7 h?
t

Could you please tell me whether half-life at 5 μM recorded for `Cc1cc(O)cc2[nH]cc(C(=O)OCC34CCN(CC3)CC4)c12` is less than 7 h?
t
